Assign polymerase ribozyme fitness (log ratio) to each entry below.
B1: TPR t1 (parent)
chain: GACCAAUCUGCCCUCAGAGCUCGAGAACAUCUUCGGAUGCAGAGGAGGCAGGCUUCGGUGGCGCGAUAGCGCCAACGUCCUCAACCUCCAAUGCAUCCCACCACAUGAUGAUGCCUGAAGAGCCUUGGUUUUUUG

Variants of: B1
Assay: polymerase ribozyme fitness, log enrichment relative to wild type (log ratio); higher = more active; in vitro selection for triplet polymerase activity
Just the number.

Sample GACCAAUUUGCCCUCAGAGCUCGAGAACAUCUUCGGAUGCAGAGGAGGCAGGCUUCGGUGGCGCGAUAUCGCCAACGUCCUCAACCUCCAAUCCAUCCCACCACAUGAUGAUGCCUGAAGAGCCUUGGUUUUUUG [C8U G69U G93C] ; polymerase ribozyme fitness (log ratio) observed: 0.148

Lab note: GACCAAUCUGCCCUCAGAGCUCGAGAGCAUCUUCGGAUGCAGAGGAGGCAGGCUUCGGUGGCGCGAUAGCGCCAACGUCCUCAACCUUCAAAGCAUCCCACCAAAUGACGAUGCCUGAGGAGCCUUGGUUUUAUG [A27G C88U U92A C104A U109C A119G U133A] gave polymerase ribozyme fitness (log ratio) of -7.24

Per the records, this variant ( GACCAAUCUGCCCUCAGAGCUCGAGAACAUCUUCGGAUGCAGAGGAGGCAGGCUUCGGUGGCGCGAUAGCGCCAACGUCCUCAACCUCCAAUGCAUCCCACCACAUGAUGAUACCUGAAGACCCUUGGUUUUUUG [G113A G122C] ) has polymerase ribozyme fitness (log ratio) equal to -3.36

Sure, the documented polymerase ribozyme fitness (log ratio) for GACCAAUCUUCCCUGAGAUCUCGAGAACAUCUUCGGAUGCAGAGGAGGCAGGCUUCGGUGGCACGAUAGCGCCAACGUCCUCAACCUCCAAUGCAUCCCACCACAUGAUGAUUCCUGAAGAGCAUUGGUUUUUUG [G10U C15G G19U G63A G113U C124A] is -5.07

// field: polymerase ribozyme fitness (log ratio); key: GACCAAUCUGCCCUCAGAGCUCGAGAACAUCUUCGGAUGCAGAGGAGGCAGGCUUCGGUGGCGCGAUAGCGCCAACUUCCUCAACCUCCAAUGCAUCCCACCACAUGAUGAUGCCUGAAGAGCCAUGGUUUUUUG [G77U U125A] ; value = -1.21

variant GACCAAUCUGCCCUCAGAGCUCGAGAACAUCUUCGGAUGCAGAGGAGGCAAGCUUCGGUGGCGCGAUAGCGCCAACGUCCUCAACCUCCAAUGCAGCCCACCACAUGAUGAUGCCUGAAGAGCCUUGGUUUUUUG [G51A U96G] , polymerase ribozyme fitness (log ratio) observed: -3.85

Lab note: GACCAAUCUACCCUCAGAGCUCGAGAACUUCUUCGGAUGCAGAGGAGGCAGGCUUCGGUGGCGCGAUAGCGCCAACGUCCUCAACCUCCAAUGCAUCCCACCACAUGAUGAUGCCUGAAGAGCCUUGGUUUUUUG [G10A A29U] gave polymerase ribozyme fitness (log ratio) of -1.77

Input GACCAAUCUGCCCUCAGAGCUCGAGAUCAUCUUCGGACGCAGAGGUGACAGGCUUCGGUGGCGCGAUAUCGCCAACGUCCUCAACCUCCAAUGCAUCCCACCACAUGAUUAUGUCUGAGGAGCCUUGGUUUUUUG [A27U U38C A46U G48A G69U G110U C114U A119G] . Output polymerase ribozyme fitness (log ratio): -6.11

# polymerase ribozyme fitness (log ratio) (variant: GACCAAUCUGCCCUCAGAGCUCGAGAACAUCUUCGGAUGCAGAGGAGGCGGGCUUCGGUGGCGCGAUAGCGCCAACGUCCUCAACCUCAAAUGCAUCCCACCACAUGAUGAUGCCUGAAGAGCCUUGGUUUUUUG [A50G C89A] ) is -1.48

According to the records, this variant GACCAAUCUGCCCUCAGAGCUCGAGAACAUCUUCGGAUGCAGAGGAGACAGGCUUCGGUGGCGCGAUAGCCCCAACGUCCUCAACCUCCAAUGCACCCCACCACAUGAUGAUGCCUGAAGAGCCUUGGUUUUUUG [G48A G71C U96C] displays polymerase ribozyme fitness (log ratio) of -1.75

Measured polymerase ribozyme fitness (log ratio), GACCAAUCUGCCCUCAGCGCUUGAGAACAUCUUCGGAUGCAGAGGAGGCAGGCUUCGGUGGCGCGAUAGCGCAAACGUCCUCAACCUCCAAUGCAUCCCACCACAUGAUGAUGCCUGAAGUGCCUUGGUUUUUUG [A18C C22U C73A A121U] : -5.5

# polymerase ribozyme fitness (log ratio) of GACCAAUCUGCCCUCAGAGCUCGAGAACAUCUUCGGAUGGAGAGGAGGCAGGCUUCGGUGGCGCGAUAGCGCCAACGUCCUCAACCUCCAAUGCUUCCCACCACAUGAUGAUGCCUGAAGAGCCUUGGUUUUUUG [C40G A95U] = -3.37

The variant listed as GACCAAUCUGCCUUCAGAGCUCGAGAACAUCUUCGGAUGCAGAGGAGGCAGGCUUCGGUGGCGCGAUAGCGCCAACGUCCUCAACCUCCAAUGCAUCCCAUCACAUGAUGAUGCCUGAAGAGCCUUGGUUUUUUG [C13U C101U] has a reported polymerase ribozyme fitness (log ratio) of -0.0534

GET /value?item= GACCAAUCUGCCCUCAGAGCUCGAGAACAUCUUCGGAUGCAGAGGAGGCAGGCUUCGGUGGCGCGAUAGCGCCAAGGACCACAACCUCGAAUGCAUCCCACCACAUGAUGAUGCCUGAUGAGCCUUGGUUUUUUG [C76G U78A U81A C89G A119U] &field=polymerase ribozyme fitness (log ratio) returns -3.52

Measured polymerase ribozyme fitness (log ratio) of GACCAAUCUGGCCUCAGAGCUCGAGAAAAUCUUCGGAUGCAGAGGAGGCAGGCUUUGGUGGCGCGAUAGCGCCAACGUCCUCAACCUCCAAUGCAUCCCACCACAUGAUGAUGCCUGAAGAGCGUUGGUUUUUUG [C11G C28A C56U C124G] : -3.7

GET /value?item= GACCAAUCUGCCCUCAGAGCUCGAGAACAUCUUCGGAUGCAGAGAAGGCAGGCUCCGGUGGAGCGAUAGCGCCAACGUCCUCAACCUCGAAUGCAUCCCACCACAUGAUGAUGCCUGAAGAGCCUUGGUUUUUUG [G45A U55C C62A C89G] &field=polymerase ribozyme fitness (log ratio) returns -3.49

The variant GACCAAUCUGCCCUCAGAGCUCGAGAACAUCUUCGGAUGCAGAGGAAGCAGGCUUCGGUGUCGCGAUAGCGCCAACGUCCUCAACCUCCAAUGCAUCCCACCACAUGAUGAUGCCUGAAGAGCCUUGGUUUUUUG [G47A G61U] showed polymerase ribozyme fitness (log ratio) equal to -1.24

# variant GAUCAAUCUGCCCUCAGAGCUCGAGAACAUCUUCGGAUGCAGAGGAGGCACGCUUCGAUGGCUCGAUAGCGCCAACGUCCUCAACCUCCAAUGCAUCCCACCACAUGAUGAUGCGUGAAGAGCCUUGGUUUUUUG [C3U G51C G58A G63U C115G] ; its polymerase ribozyme fitness (log ratio) = -5.47

Short answer for GACCAAUCUACCCUCAGAGCUCGAGAACAUCUUCGGAUGCAGAGGAGGCAGGCUUCGGUGGCGCGAUAGCGCAAACGUCCUCAACCUCCAAUGCAUCCCACCACAUGAUGAUGCCUGAAGAGCCUUGGUUUUUUG [G10A C73A] : polymerase ribozyme fitness (log ratio) was -0.58

Recorded polymerase ribozyme fitness (log ratio) (variant GACCAAUCUGCCCUCAGCGCUCGAGAACAUCUUCGGAUGCAGAGGAGGCAGGCUUCGGUGGCGCGAUAGCGGCAACGUCCUCAACCUCCAAUGCAUCCCACCACAUGAUGAUGCCUGAAGAGCCUUGGUUUUUUG [A18C C72G] ): -3.9

Entry GACCCAUCUGCCCACAGAGCUCGAGAACAUCUUCGGAUGCAGAGGUGGCAGGCUUCGGUGGCGCGAUAGCGCCAACGUCCUCAACCUCCAAUGCAUCCCACCACAUGAUGAUGCCUGAAGAGCCUUGGUUUUUUG [A5C U14A A46U] ; polymerase ribozyme fitness (log ratio) = -4.39

Looking up GACCAUUCUGCUCUCAGAGCUCGAGAACAUCUUCGGAUGCAGAGGAGGCAGGCUUCGGUGGCGCGAUAGCGCCAACGUCCUCAACCUCCAAUGCAUCCCACCACAUGAUUAUGCCUGAAGAGCCUUGGUUUUUUG [A6U C12U G110U] , I found its polymerase ribozyme fitness (log ratio) recorded as -1.97

Lab book: polymerase ribozyme fitness (log ratio) of GACCAAUCUGCCCUCAGAGCUCGAGAACAUCUUCGGAUGCAGAGGUGGCAGGCUUCGCUGGCGCGAUAGAGCCAACGUCCUCAACCUCCAAUGCAUCCCACCACAUGAUGAUGCCUGAAGAGCCUUGGUUUUUUG [A46U G58C C70A] noted as -2.22

Reported polymerase ribozyme fitness (log ratio) ( GACCAAUCAGACCUCAGAGCUCGAGAACAUCUUCGGAUGCAGAGGAGGCAGGCUUAGGUGGCGCGAUAGCGCCAACGUCCUCAACCUCCAAUGCGUCCCACCACAAGAUGAUGCCUGAAGAGUCUUGGUUUUUUG [U9A C11A C56A A95G U106A C123U] ) = 1.46

GACCAAUCUGCCCUCAGAGCUCGAGAACAUCUUCGUAUGCAGAGGUGGCAGGCUUCGGUGGCGCGAUAGCGACAACGUCCUCAACCUCCAAUGCAUUCCACCACAUGAUGAUGCCUGAAGAGCCUUGGUUUUUUG [G36U A46U C72A C97U] has a reported polymerase ribozyme fitness (log ratio) of -1.58

Measured polymerase ribozyme fitness (log ratio), GACCAAUCUGCACUCAGAGCUCGAGAACAUCUUCGGAUGCAGAGGAGGCAGGCUUCGGUGGCGCGAUAGAGCCAACGUCCUCAACCUCCAAAGCAUCCCACCACAUGAUGAUGCCUGAAGAGCCUUGGUUUUUUG [C12A C70A U92A] : -5.67

The variant listed as GACCAAUCUGCCCUCAGAGAUCGAGAACAUCUUCGGAUGCAGAGGAGGGAGGCUUCGGUGGCGCGAUAGCGCCAACGUCCUCAACCUCCAAUGCAUCCCACCACAUGAUGAUGCCUGAAGAGCCUUGGUUUUUUG [C20A C49G] has a reported polymerase ribozyme fitness (log ratio) of -2.27

Query GACCAAUCUUCCCUCAGAGCUCGAGAACAUCUUCGCAUGCAGAGGAGGCAGGCUUCGGUGGCGCGAUAGCGCCAACGUCCUCAACGUCCAAUGCAUCCCACCACAUGAUGAUGCCUGAAGAGCCUUGCUUUUUUG [G10U G36C C86G G128C] yields polymerase ribozyme fitness (log ratio) of -5.29

So for GACCAAUCUGCCCUCAGAGUUCGAGAACAUCUUCGGAUGCCGAGGAGGCAGGCUUCGGUGGCGCGAUAGCGCCAACGUCCUCAACCUCCAAUGCAUCCCACCACAUGAUGAUGCCCGAAGAGCCUUGGUUUUUUG [C20U A41C U116C] , the logged polymerase ribozyme fitness (log ratio) turned out to be -4.23

# variant GACCAAUCUGCCCUCAGAGCUCGAGAGCAUCUUCGGAUGCAGAGGUGGCAGGCUUCGGUGGCGCGAUAGCGCCAACUACCUCAACCUCCAAUGCAUCCCACCACAUGAUGAUGCCUGAAGAGCCUUGGUUUUUUG [A27G A46U G77U U78A] ; its polymerase ribozyme fitness (log ratio) = -3.31

The reported value for GACCAAUCUACCUUCAGAGCUCGAGAUCAUCUUCGGAUGCAGAGGAGGCAGGCUUCGGUGGCGCGAUAGCGCCAACGUCCUCAACCUCCAAUGCAUCCCACCACAUGAUGAUGCCUGAAGAGCCUUGGUUUUUUG [G10A C13U A27U] in terms of polymerase ribozyme fitness (log ratio) is -2.05

According to the records, this variant GACCAUUCUGCCCUCAGAGCUCGAGAACAUCUUCGGAUGCAGUGGAGGCAGGCUUCGGUGGCCCGAUAGCGCCAACGUCCUCAACCUCCAAUGCAUCCCACCACAUGAUGAUUCCUGAAGAGCCUUGGUUUUUUG [A6U A43U G63C G113U] displays polymerase ribozyme fitness (log ratio) of -3.4

Reported polymerase ribozyme fitness (log ratio) for GACCAAUCUGCCCUCAGAGCUCGAGAACAUCUUCGGAUGCAGAGGAGACAGGCUUCGGUGGCGCGAUAGCGCCAACGUCCUCAACCUCCAAUGCAUCCCACCACAUGAUAAUGCCUGAAGAGCCUUGGUUUUUUG [G48A G110A] was -1.6

Recorded polymerase ribozyme fitness (log ratio) (variant GACCAAUCUGCCCUCAGAGCUCGAGAACUUCUUCGGAUGCAGAGGAGGCAGGCUUCGGUGGUGCGAUAGCGCCCACGUCCCCAACCUCCAAUGCAUCCCACCACAUGAUGAUGCCUGAAGAGCAUUGGUUUUUUG [A29U C62U A74C U81C C124A] ): -1.11

Kindly note the recorded polymerase ribozyme fitness (log ratio) for GACCAAUCUGCCCUCAGAGCUCGAGAACAUCUUCGGAUGCAGAGGAGGCAGGCUUCGGUGGCGCGAUAGCGCCAACGUCCUCAACCUCCAAUGCAUCCCACCACAUGAUGAGGCCUAAAGAGCCUUGGUUUUUUG [U112G G117A] , which is -2.9

Form field polymerase ribozyme fitness (log ratio), entry GACCAAGCUGCCUUCAGAGCUCGAGGACAUCUUCGGAUGCAGAGGAGAUAGACUUCGGUGGCGCGAUAGCGCCACCGUCCUCAACCUCCAAUGCAUCCCACCACAUGAUGAUGCCUGAAGAGCCUUGGUUUUUUG [U7G C13U A26G G48A C49U G52A A75C] : -3.14

For this variant ( GACCAAUCUGCCCUCAGAGCUCGAGAACAUCUUCGCUUGCAGAGGAGCCAGGCUUCGGUGGCGCGAUAGCGCCAACGUCCUCAACCUCCAUUGCAUCCCACCACAUGAUGAUGCUUGAAGAGCCUUGGUUUUUUG [G36C A37U G48C A91U C115U] ), measured polymerase ribozyme fitness (log ratio) is -4.92
